Entry source: patent US20250057970A1

target_of_assay: T1, Tumor-associated calcium signal transducer 2 (UniProt P09758 27-323, limits assumed)
T1 sequence (looked up): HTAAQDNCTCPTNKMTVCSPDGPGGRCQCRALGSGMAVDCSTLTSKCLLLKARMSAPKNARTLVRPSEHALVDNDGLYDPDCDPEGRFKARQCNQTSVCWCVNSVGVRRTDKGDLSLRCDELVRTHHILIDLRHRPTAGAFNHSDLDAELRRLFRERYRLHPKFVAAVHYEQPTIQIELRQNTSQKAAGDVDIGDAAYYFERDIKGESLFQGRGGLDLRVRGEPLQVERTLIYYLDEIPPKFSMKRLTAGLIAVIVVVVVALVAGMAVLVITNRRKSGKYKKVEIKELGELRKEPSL
assay_protocol: cell-based or functional assay
Can you tell me IC50 (nM), in vitro killing activity, MDA-MB-468 Cell for the items I'm about to list?
Kindly answer with a numeric value in nM, unit omitted.

input: Supply IC50 (nM), in vitro killing activity, MDA-MB-468 Cell value. Item: FDA018-LE19 (antibody, human IgG1, kappa, V domains shown, linker-drug LE19 coupled to cysteine sulfhydryl groups after reduction of the interchain disulfide bonds; DAR 4.13 for the whole antibody; sites not stated) VH: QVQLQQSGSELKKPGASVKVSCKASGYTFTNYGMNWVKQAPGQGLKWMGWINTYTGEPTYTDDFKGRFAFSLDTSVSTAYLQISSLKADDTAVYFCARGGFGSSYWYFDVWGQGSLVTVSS VL: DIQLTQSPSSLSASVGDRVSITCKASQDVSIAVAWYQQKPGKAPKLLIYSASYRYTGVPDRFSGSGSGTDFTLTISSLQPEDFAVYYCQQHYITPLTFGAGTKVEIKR
output: 1.03

input: Consider the binder FDA018-LE18 (antibody, human IgG1, kappa, V domains shown, linker-drug LE18 coupled to cysteine sulfhydryl groups after reduction of the interchain disulfide bonds; DAR 3.96 for the whole antibody; sites not stated) VH: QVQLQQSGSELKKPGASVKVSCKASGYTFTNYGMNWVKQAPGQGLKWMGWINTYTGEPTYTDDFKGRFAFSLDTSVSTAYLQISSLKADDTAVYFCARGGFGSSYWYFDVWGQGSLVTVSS VL: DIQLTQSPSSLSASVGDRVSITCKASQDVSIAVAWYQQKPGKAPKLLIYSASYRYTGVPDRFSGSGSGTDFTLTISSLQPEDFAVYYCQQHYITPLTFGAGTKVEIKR . State its measured IC50 (nM), in vitro killing activity, MDA-MB-468 Cell.
output: 0.86

input: Please report the measured IC50 (nM), in vitro killing activity, MDA-MB-468 Cell for FDA018-LE14 (antibody, human IgG1, kappa, V domains shown, linker-drug LE14 coupled to cysteine sulfhydryl groups after reduction of the interchain disulfide bonds; DAR 4.00 for the whole antibody; sites not stated) VH: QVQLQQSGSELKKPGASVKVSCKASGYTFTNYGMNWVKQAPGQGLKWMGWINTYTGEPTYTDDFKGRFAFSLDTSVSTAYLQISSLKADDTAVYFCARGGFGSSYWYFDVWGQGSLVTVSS VL: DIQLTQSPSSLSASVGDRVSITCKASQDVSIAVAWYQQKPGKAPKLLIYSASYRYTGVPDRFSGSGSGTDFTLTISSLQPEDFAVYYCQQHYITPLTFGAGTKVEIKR
output: 0.8
